- testMethodNotes: yeast display, Sf9 membrane polyspecificity reagent, FACS + sequencing; frameworks hold sequencing errors

residueCodes	polyreactivity (PSR sort gate)
QVQLVESGGGLFQAGGSLRISCAASGGTFFRYAMGWYRQAPGKERELVAAITWSSGSTYYADSVKGRFTISRDNAKNTGYLQMNSLKPEDTAVYYYDYYTYGDYWGQGTEVTVSS	low polyreactivity
QFQLVESGGVLDQAGGSLRLSCAASGSNFTIYAIGWYRQAPGKERELVADISSGGSTYYADSVKGRFTISRDNAKNTVYLQMNSLNPEDTAVYYCAAGVFFFTFVYWGQGTQVTVSS	low polyreactivity

----------
- testMethodNotes: yeast display, Sf9 membrane polyspecificity reagent, FACS + sequencing; frameworks hold sequencing errors
endpointName: polyreactivity (PSR sort gate)

Solved entries (count: 4):
residueCodes	polyreactivity (PSR sort gate)
QDQLVESGGGLVQAGGSLRLSCAASGSTFGFNAMGWDRQAPGKERELVAAITWSGGSTYYADSVKGRFTISRDNAKNTVYLQMNSLKPEDTAVYYCARETYGDYVHYDYWGQGTQVTLSS	low polyreactivity
QVQLVESGGGLVQAGGSLRLSCAASGSIFSRNAMGWYRQAPGKERELVAAISRRGGSTYYADSVKGRFTISRDNAKITVYLQMNSLKPEDTAVYYCAAPFEAVRSYYWGQGTQVTVSS	high polyreactivity
HVQLVESGGGLVQAGGSLRLSCAASGGIFVYYAMGWYRQAPGKVRELVAAISRSAASTYYADSVKGRFTISRDNAKNTVYLQMNSLKPEDTADYYCAAGQLTDKGGGDSWGQGTQVTVSS	low polyreactivity
QVQLVESGGGLVQAGGSLRLSCAASGRTFKSYTLGWYRQAPGKEREFVAAISSRGGNTYYADSVNGRFTISRDNAKNTVYLQMNSLKPEDTAVYYSAAESSFWSFPTYDYWGQGTQVTVSS	high polyreactivity

Let us examine a further case.
Name the reported polyreactivity (PSR sort gate) value associated with the sequence QVQLVESGGGLVQAGGSLRLSCAASGSIFGWYAMGWYRQAPGKERELVAAAIDYRDDSTYYADSVKGRFTISRDIAKNTVYLQMNSLKPEDTAVYYCAAEKDGDWRGYDYWGQGTQVTVSS
low polyreactivity
